STUDY SYSTEM: kainate site (non-NMDA receptor)
TEST DETAILS: kainate site (non-NMDA receptor) binding affinity (London and Coyle)
MEASUREMENT PARAMETERS: Table 1
VALUE TYPE: IC50 KA (µM)

// below: answered molecules
MOLECULE	STUDY SYSTEM	IC50 KA (µM)
Cc1c([N+](=O)[O-])cc2[nH]c(=O)c(=O)[nH]c2c1CN1CCCCCC1	kainate site (non-NMDA receptor)	3.695
Cc1c([N+](=O)[O-])cc2[nH]c(=O)c(=O)[nH]c2c1CN1CCCCC1	kainate site (non-NMDA receptor)	4.11
Cc1c([N+](=O)[O-])cc2[nH]c(=O)c(=O)[nH]c2c1CN1CCC(C)CC1	kainate site (non-NMDA receptor)	9.95
Cc1c([N+](=O)[O-])cc2[nH]c(=O)c(=O)[nH]c2c1CN1CCC2(CCCCC2)CC1	kainate site (non-NMDA receptor)	6.54
Cc1c([N+](=O)[O-])cc2[nH]c(=O)c(=O)[nH]c2c1CN1CCOCC1	kainate site (non-NMDA receptor)	9.083

1: Cc1c([N+](=O)[O-])cc2[nH]c(=O)c(=O)[nH]c2c1CN1CCN(C)CC1
2: Cc1c([N+](=O)[O-])cc2[nH]c(=O)c(=O)[nH]c2c1CN1CCCC1
3: Cc1c([N+](=O)[O-])cc2[nH]c(=O)c(=O)[nH]c2c1CN1CCCCC1C (stereo not shown)
4: Cc1c([N+](=O)[O-])cc2[nH]c(=O)c(=O)[nH]c2c1CN1C(C)CCC1C (stereo not shown)
// smallest IC50 KA at index 0, largest at the end Form field (ranking): labels in requested order.
4, 2, 3, 1
(4: 2.84 µM, 2: 4.52 µM, 3: 8.28 µM, 1: 13.2 µM)

###

STUDY SYSTEM: AMPA receptors
TEST DETAILS: AMPA receptor binding affinity (Honoré et al.)
MEASUREMENT PARAMETERS: Table 1
VALUE TYPE: IC50 (nM)

Solved cases below.
MOLECULE	STUDY SYSTEM	TEST VALUE
Cc1c([N+](=O)[O-])cc2[nH]c(=O)c(=O)[nH]c2c1CN1CCOCC1	AMPA receptors	572
Cc1c([N+](=O)[O-])cc2[nH]c(=O)c(=O)[nH]c2c1CN1CCCC1C (centres unmarked)	AMPA receptors	370

P: Cc1c([N+](=O)[O-])cc2[nH]c(=O)c(=O)[nH]c2c1CN1CCC2(CCCCC2)CC1
Q: Cc1c([N+](=O)[O-])cc2[nH]c(=O)c(=O)[nH]c2c1CN1CCCCCC1
R: Cc1c([N+](=O)[O-])cc2[nH]c(=O)c(=O)[nH]c2c1CN1CCCCC1
rank_up(items): orders items by reported IC50 in ascending numerical order. Write the labels out in the order the request specifies.
R, P, Q
(R: 290 nM, P: 486 nM, Q: 899 nM)

###

STUDY SYSTEM: AMPA receptors
TEST DETAILS: AMPA receptor binding affinity (Honoré et al.)
MEASUREMENT PARAMETERS: Table 1
VALUE TYPE: IC50 (nM)

Known results for compounds:
COMPOUND	UNITS	IC50
Cc1c([N+](=O)[O-])cc2[nH]c(=O)c(=O)[nH]c2c1CN1C(C)CCC1C (centres unmarked)	nM	740
Cc1c([N+](=O)[O-])cc2[nH]c(=O)c(=O)[nH]c2c1CN1CCC(C)CC1	nM	420
Cc1c([N+](=O)[O-])cc2[nH]c(=O)c(=O)[nH]c2c1CN1CCCC1	nM	220

a: Cc1c([N+](=O)[O-])cc2[nH]c(=O)c(=O)[nH]c2c1CN1CCN(C)CC1
b: Cc1c([N+](=O)[O-])cc2[nH]c(=O)c(=O)[nH]c2c1CN1CCCCC1C (centres unmarked)
Which has the smaller recorded IC50, a or b ? Bench note: the answer is the label of the chosen record.
b
